- experimental system: recombinant SARS-CoV-2 Main protease (Mpro) (Severe acute respiratory syndrome coronavirus 2 (2019-nCoV) (SARS-CoV-2), UniProt P0DTD1)
- assay remarks: Cov Mpro Biochemical IC50 Assay
- measurement parameters: recombinant SARS-CoV-2 Mpro 7.5 nM, fluorogenic peptide substrate 40 μM; read-out: MPro IC50
quantity: IC50 (nM)
Give the quantity in nM, number only.

Recorded results for 4 compounds are shown here.
chemical structure	measured
N#CCCn1c(=O)n(-c2cccnc2)c(=O)c2sc(-c3ccccc3C#N)cc21	60.6
COc1cc(-c2cc3c(s2)c(=O)n(-c2cncc4nc(C)n(C)c24)c(=O)n3CC2(C#N)CC2)c(Cl)cc1F	2.13
COc1cc(-c2cc3c(s2)c(=O)n(-c2cncc4nc(-c5ccccc5F)n(C)c24)c(=O)n3CCC#N)c(Cl)cc1F	19.6
CCOc1cc(-c2cc(OC)c(F)cc2Cl)cc2[nH]c(=O)n(-c3cncc4ccccc34)c(=O)c12	31.6

Exam item: Entry Cc1cncc(-n2c(=O)c3sc(-c4cc(F)ccc4C#N)cc3n(CCC#N)c2=O)c1 needs its IC50 filled in; supply it.
Marked response: 11.7

Exam item: // Input: COc1cc(-c2cc3c(s2)c(=O)n(-c2cncc(N4CCOCC4)c2)c(=O)n3CCC#N)c(Cl)cc1F . Output its IC50 only.
Marked response: 263

Exam item: Report IC50 for Cc1c(-c2cccc(Cl)c2-c2ccc3c(=O)n(-c4cncc5ccccc45)c(=O)[nH]c3c2)cnn1C1CCNCC1
Marked response: 17.5

Attribution: patent US20240116946A1
